Reference for the values: ChEMBL document CHEMBL1131351

# assaySystem: Progesterone receptor (Homo sapiens)
# assayDetails: Antagonist activity against human progesterone receptor B (hPR-B) in co-transfected CV-1 cells
pIC50: −log10 of the molar value.
propertyName: pIC50

CC1=CC(C)(C)Nc2cc3c(cc21)-c1ccccc1C3=O	6.45
CC1=CC(C)(C)Nc2ccc3c([nH]c4ccccc43)c21	6.18
CC1=CC(C)(C)Nc2ccc3c(oc4ccccc43)c21	5.94
CCCCn1c2ccccc2c2ccc3c(c21)C(C)=CC(C)(C)N3	6.38
CC(=O)c1ccc2c(c1)Cc1cc3c(cc1-2)C(C)=CC(C)(C)N3	6.79
CC1=CC(C)(C)Nc2cc3c(cc21)-c1ccc(Br)cc1C3O (stereo unspecified)	5.46

----------
Quick list: pKi per entry.
# assaySystem: Progesterone receptor (Homo sapiens, UniProt P06401)
pKi: −log10 of the molar value.
propertyName: pKi

CC1CC(C)(C)Nc2cc3c(cc21)-c1ccccc1C3 (stereo unspecified)	7.06
CC1=CC(C)(C)Nc2cc3c(cc21)-c1c(F)cccc1C3O (stereo unspecified)	6.35
CCCCn1c2ccccc2c2ccc3c(c21)C(C)=CC(C)(C)N3	7.11
CCn1c2ccccc2c2ccc3c(c21)C(C)=CC(C)(C)N3	6.77
CC1=CC(C)(C)Nc2cc3c(cc21)-c1cccc(F)c1C3	8.64
CC1=CC(C)(C)Nc2cc3c(cc21)-c1c(F)ccc(F)c1C3	8.51
CC1=CC(C)(C)Nc2cc3oc4ccccc4c3cc21	6.74
CC1=CC(C)(C)Nc2cc3c(cc21)-c1ccc(Cl)cc1C3	7.54

----------
# assaySystem: Progesterone receptor (Homo sapiens, UniProt P06401)
# Sequence (P06401 whole entry): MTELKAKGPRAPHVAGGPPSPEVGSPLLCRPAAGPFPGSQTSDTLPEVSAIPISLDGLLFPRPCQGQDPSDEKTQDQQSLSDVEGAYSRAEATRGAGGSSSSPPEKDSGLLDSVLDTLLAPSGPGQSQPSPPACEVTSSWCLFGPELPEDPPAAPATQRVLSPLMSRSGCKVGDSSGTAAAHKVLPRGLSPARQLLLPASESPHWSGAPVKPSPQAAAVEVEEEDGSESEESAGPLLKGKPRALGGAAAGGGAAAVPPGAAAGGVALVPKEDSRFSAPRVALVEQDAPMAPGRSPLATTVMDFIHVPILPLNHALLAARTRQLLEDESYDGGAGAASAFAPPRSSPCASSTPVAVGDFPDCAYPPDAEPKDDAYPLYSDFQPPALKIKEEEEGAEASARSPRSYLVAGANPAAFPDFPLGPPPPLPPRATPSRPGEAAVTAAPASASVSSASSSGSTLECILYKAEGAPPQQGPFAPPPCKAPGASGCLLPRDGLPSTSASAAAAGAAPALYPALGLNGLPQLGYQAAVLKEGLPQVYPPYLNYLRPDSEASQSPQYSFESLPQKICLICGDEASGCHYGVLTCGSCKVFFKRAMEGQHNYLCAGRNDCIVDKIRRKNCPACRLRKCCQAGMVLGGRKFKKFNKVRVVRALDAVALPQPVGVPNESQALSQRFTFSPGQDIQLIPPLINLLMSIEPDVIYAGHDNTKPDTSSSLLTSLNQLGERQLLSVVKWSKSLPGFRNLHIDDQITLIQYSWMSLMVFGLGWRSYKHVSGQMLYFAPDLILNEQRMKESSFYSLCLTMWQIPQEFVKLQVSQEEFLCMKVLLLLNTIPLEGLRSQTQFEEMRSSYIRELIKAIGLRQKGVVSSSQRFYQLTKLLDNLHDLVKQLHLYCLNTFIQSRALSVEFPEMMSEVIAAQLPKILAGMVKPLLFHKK
# assayDetails: Antagonist activity against human progesterone receptor B (hPR-B) in co-transfected CV-1 cells
pIC50: −log10 of the molar value.
Label rule, in plain words: pIC50 of 6 and up is yes (1), under 6 is no (0).

CC1=CC(C)(C)Nc2cc(F)c3c(c21)Cc1cc(F)ccc1-3	no (0)
CC1=CC(C)(C)Nc2cc3oc4ccccc4c3cc21	no (0)
CC1=CC(C)(C)Nc2cc3c(c(F)c21)-c1ccc(F)cc1C3OC(=O)C(F)(F)F (stereo not given)	yes (1)
CC1=CC(C)(C)Nc2ccc3c(c21)Cc1cc(Br)ccc1-3	no (0)
CC1=CC(C)(C)Nc2cc3c(cc21)-c1c(F)ccc(F)c1C3	yes (1)
CC1=CC(C)(C)Nc2cc3c(cc21)-c1ccc(Br)cc1C3	yes (1)
CC1=CC(C)(C)Nc2cc3c(cc21)-c1ccc([N+](=O)[O-])cc1C3	yes (1)
CC1=CC(C)(C)Nc2cc(F)c3c(c21)C(O)c1cc(F)ccc1-3 (stereo not given)	no (0)
CC1=CC(C)(C)Nc2cc3c(c(Cl)c21)-c1ccccc1C3O (stereo not given)	yes (1)
CC1=CC(C)(C)Nc2ccc3c(c21)Cc1c(F)cccc1-3	yes (1)
CC1=CC(C)(C)Nc2cc3c(cc21)-c1cccc(F)c1C3	no (0)
CC1=CC(C)(C)Nc2cc3c(cc21)-c1cccc(CO)c1C3	no (0)
CC1=CC(C)(C)Nc2ccc3c(c21)Cc1cc([N+](=O)[O-])ccc1-3	no (0)
CC1=CC(C)(C)Nc2ccc3c(c21)Cc1cc([N+](=O)[O-])c(F)cc1-3	no (0)
CC1=CC(C)(C)Nc2cc3c(cc21)-c1ccc(Br)cc1C3Cc1ccccc1 (stereo not given)	no (0)
CCn1c2ccccc2c2ccc3c(c21)C(C)=CC(C)(C)N3	yes (1)
CC1=CC(C)(C)Nc2cc3c(cc21)-c1ccc(Cl)cc1C3	yes (1)
CC1=CC(C)(C)Nc2cc3c(cc21)-c1c(F)cc(F)cc1C3O (stereo not given)	yes (1)
CC1=CC(C)(C)Nc2cc3c(cc21)-c1ccccc1C3O (stereo not given)	yes (1)
CC1=CC(C)(C)Nc2cc3c(cc21)-c1c(F)cccc1C3O (stereo not given)	yes (1)

----------
# assaySystem: Progesterone receptor (Homo sapiens)
# Sequence (P06401 whole entry): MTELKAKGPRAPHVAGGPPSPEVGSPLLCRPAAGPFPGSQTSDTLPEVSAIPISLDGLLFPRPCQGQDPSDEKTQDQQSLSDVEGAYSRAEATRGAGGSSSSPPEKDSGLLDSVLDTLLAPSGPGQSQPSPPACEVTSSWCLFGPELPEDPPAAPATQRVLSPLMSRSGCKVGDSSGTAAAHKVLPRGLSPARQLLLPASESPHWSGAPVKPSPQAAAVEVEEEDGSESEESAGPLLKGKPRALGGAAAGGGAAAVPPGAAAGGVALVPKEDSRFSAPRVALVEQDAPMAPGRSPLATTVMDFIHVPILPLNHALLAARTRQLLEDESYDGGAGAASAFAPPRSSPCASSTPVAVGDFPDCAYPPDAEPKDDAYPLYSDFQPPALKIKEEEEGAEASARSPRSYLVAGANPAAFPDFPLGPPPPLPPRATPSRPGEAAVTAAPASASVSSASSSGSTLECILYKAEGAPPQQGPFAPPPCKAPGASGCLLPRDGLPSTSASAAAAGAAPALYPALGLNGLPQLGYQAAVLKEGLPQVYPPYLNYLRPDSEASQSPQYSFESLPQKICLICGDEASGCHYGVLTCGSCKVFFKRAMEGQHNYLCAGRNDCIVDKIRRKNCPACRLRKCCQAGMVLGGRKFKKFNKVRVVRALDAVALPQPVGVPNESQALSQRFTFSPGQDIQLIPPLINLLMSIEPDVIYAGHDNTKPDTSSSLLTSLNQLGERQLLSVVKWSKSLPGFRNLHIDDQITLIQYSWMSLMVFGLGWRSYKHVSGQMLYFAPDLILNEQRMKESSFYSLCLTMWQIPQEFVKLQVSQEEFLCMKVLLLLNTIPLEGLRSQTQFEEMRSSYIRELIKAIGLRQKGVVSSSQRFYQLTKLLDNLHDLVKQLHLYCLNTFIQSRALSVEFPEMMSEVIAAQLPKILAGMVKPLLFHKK
pKi: −log10 of the molar value.
Catalogue of pKi readings, one per entry.
propertyName: pKi

CC1=CC(C)(C)Nc2cc3c(cc21)-c1cccc(CO)c1C3	7.91
CC1=CC(C)(C)Nc2cc3[nH]c4ccccc4c3cc21	6.95
CC1=CC(C)(C)Nc2cc3c(cc21)-c1ccc(F)cc1C3O (centres undefined)	7.00
CC1=CC(C)(C)Nc2cc(F)c3c(c21)Cc1cc(F)ccc1-3	7.68
CC1=CC(C)(C)Nc2ccc3c(oc4ccccc43)c21	7.11
CC1=CC(C)(C)Nc2cc3c(cc21)-c1ccccc1C3	7.85
CC1=CC(C)(C)Nc2cc3c(c(Cl)c21)-c1ccccc1C3O (centres undefined)	7.27
CC1=CC(C)(C)Nc2cc3c(c(F)c21)-c1ccc(F)cc1C3OC(=O)C(F)(F)F (centres undefined)	7.20

----------
# assaySystem: Progesterone receptor (Homo sapiens, UniProt P06401)
# assayDetails: Antagonist activity against human progesterone receptor B (hPR-B) in co-transfected CV-1 cells
log10 IC50 by entry:
propertyName: log10 IC50 (log10 of the value in nM)

CC1=CC(C)(C)Nc2cc3c(c(F)c21)-c1ccc(F)cc1C3(C)O (stereo unspecified)	4.00
CC1=CC(C)(C)Nc2cc3c(cc21)-c1ccc(Br)cc1C3C (stereo unspecified)	4.00
CC1=CC(C)(C)Nc2cc3[nH]c4ccccc4c3cc21	1.77
CC1=CC(C)(C)Nc2cc3c(cc21)-c1cc(F)c([N+](=O)[O-])cc1C3	2.00
CC1=CC(C)(C)Nc2ccc3c(c21)Cc1ccccc1-3	2.74
CC1=CC(C)(C)Nc2cc3c(cc21)-c1c(F)cccc1C3=O	2.20
CC1=CC(C)(C)Nc2cc3c(c(F)c21)-c1ccc(F)cc1C3=O	2.56
CC1=CC(C)(C)Nc2cc3c(cc21)-c1ccccc1C3	2.34
CC1CC(C)(C)Nc2cc3c(cc21)-c1ccccc1C3 (stereo unspecified)	2.63
CC1=CC(C)(C)Nc2cc3c(cc21)-c1ccc(F)cc1C3O (stereo unspecified)	2.09
CC1=CC(C)(C)Nc2cc3c(cc21)-c1cc(F)cc(F)c1C3O (stereo unspecified)	1.87
